system: UO-31 renal; experiment: NCI tumour cell line growth inhibition, 48 h
Assign TGI to each entry below.

Examples with answers:
- Compound: "COc1cc(/C=N/Nc2nnc3c4ccccc4c4ncccc4c3n2)cc(OC)c1OC"
  Target: "UO-31 renal"
  Quantity name: "TGI"
  Recorded measurement: "> 10 µM"
- Compound: "COC1CC(OC(=O)c2ccccc2)C(OC(=O)c2ccccc2)C(C)O1 (stereo not drawn)"
  Target: "UO-31 renal"
  Quantity name: "TGI"
  Recorded measurement: "> 100 µM"
- Compound: "COc1ccc(/C=C2\\N=C(c3ccccc3)N(C3Nc4cc5c(cc4S3)NC(N3C(=O)/C(=C/c4ccc(OC)cc4)N=C3c3ccccc3)S5)C2=O)cc1 (stereo not drawn)"
  Target: "UO-31 renal"
  Quantity name: "TGI"
  Recorded measurement: "> 100 µM"
- Compound: "Cc1cc(-c2nnc3n2CCCCC3)c(C)n1-c1ccc(Cl)c(Cl)c1"
  Target: "UO-31 renal"
  Quantity name: "TGI"
  Recorded measurement: "36.7 µM"
- Compound: "CSC1=NS(=O)(=O)c2cc(C(=O)NN(C)C(=O)c3cc4c(cc3Cl)SC(SC)=NS4(=O)=O)c(Cl)cc2S1"
  Target: "UO-31 renal"
  Quantity name: "TGI"
  Recorded measurement: "> 10 µM"
- Compound: "O=C(NCc1ccc(Cl)cc1)c1cc2sccc2nc1C(F)(F)F"
  Target: "UO-31 renal"
  Quantity name: "TGI"
  Recorded measurement: "> 100 µM"

# batch size: 6; output TGI per entry
1. Nc1ccc(S(=O)(=O)NCc2nccs2)cc1
2. O=C1c2ccccc2-n2c1nc1ccccc1c2=O
3. CNC(=S)N/N=C/c1ccc([N+](=O)[O-])s1
4. C=C1C(=O)O[C@H]2C[C@@]3(C)[C@H](O)CCC(=C)[C@@H]3[C@@H](OC(C)=O)[C@H]12
5. CCN1CSC(=S)N(CC)C1
6. COC(=O)C1=C(CS(=O)c2ccccc2[N+](=O)[O-])ON(C)C1c1ccccc1 (stereo not drawn)

55.1 µM
42.9 µM
> 10 µM
27 µM
> 100 µM
> 100 µM

Would you be so kind as to report TGI for each listed record?
1. O=C1Nc2cccc3cc(NCC(O)CCl)cc1c23 (stereo not drawn)
2. O=Cc1ccc(-c2cccs2)s1

["92.1 µM", "> 100 µM"]

# per-item lookup of TGI; items listed below
1. S=C(S)NCC1CCC(CNC(=S)S)CC1 (stereo not drawn)
2. COc1ccc(C2CC(n3nnnc3-c3ccccc3)=NN2)cc1 (stereo not drawn)
3. O=C1C2Cc3ccccc3CN2C(=O)N1CCN1CCCC1 (stereo not drawn)
4. CCCCCCN(CCCCCC)CC(O)c1ccc2c3c(cccc13)CC2 (stereo not drawn)
5. COc1ccc(/C=C2\C(=O)N(C(=O)Cc3ccccc3)N=C2C)cc1OC
6. C[C@]12CC[C@@H]3c4ccc(O)cc4C(O)C[C@H]3[C@@H]1CCC2=O (stereo partly drawn)
7. C=C1C(=O)OC2/C=C(\C=O)CC/C=C(\C)C(O)C[C@@H]12 (stereo partly drawn)
8. CC(=O)OCC=C(CCl)CCC(Br)C(C)(C)Br (mixture of isomers)

1. 47.5 µM
2. 11.7 µM
3. > 100 µM
4. 17.3 µM
5. > 100 µM
6. > 100 µM
7. 26.8 µM
8. > 10 µM

Recorded TGI for `CCOC(=O)COS(=O)(=O)C(F)(F)F` with UO-31 renal, please? > 100 µM

----------
Exercise: for every item that follows, state its recorded TGI.
tested on: UO-31 renal; assay: NCI tumour cell line growth inhibition, 48 h

Here is how some compounds turned out for TGI.
- Compound: "Cc1c(-c2ccccc2)c(C#N)c2nnc(C(N)=O)c(N)n12"
  TGI: "> 100 µM"
- Compound: "O=C(CNc1ccc(Cl)cc1Cl)NC1C=Cc2ccc(S(=O)(=O)Nc3ccc(Cl)cc3Cl)cc2C1=O (stereo not drawn)"
  TGI: "> 100 µM"
- Compound: "CC1CCN(CC(=O)N2c3ccccc3Sc3cc4ccccc4cc32)CC1"
  TGI: "> 100 µM"
- Compound: "CC1(C)C2CCC3(C2)CS(=O)(=O)N2OC231 (stereo not drawn)"
  TGI: "31.3 µM"
- Compound: "O=c1oc2ccc(Cl)cc2cc1-c1cn2cc(Cl)ccc2n1"
  TGI: "> 100 µM"
- Compound: "CCC(c1cccc(O)c1)C(CC)c1cccc(O)c1 (stereo not drawn)"
  TGI: "17.8 µM"
- Compound: "CCOc1cc(C2CC(c3ccc(NS(=O)(=O)c4cc([N+](=O)[O-])ccc4C)cc3)=NN2)ccc1O (stereo not drawn)"
  TGI: "84 µM"
- Compound: "Cn1cnc2c(sc3nc4ccccc4n32)c1=N"
  TGI: "> 100 µM"
- Compound: "COc1ccc2c(c1)[n+]([O-])c(/C(C)=N/NC(=O)CC#N)c[n+]2[O-]"
  TGI: "> 100 µM"
- Compound: "C=CC[C@@]1(C(=O)OC)[C@H](Sc2ccccc2)C1(C)C"
  TGI: "> 100 µM"

Below is a list of compounds. For each, state its recorded TGI.
1. CCCCOCn1c(=O)[nH]c(=O)c2cc(Br)ccc21
2. C=C(C)C1CC=C(C)C2(C1)OCC(C)(C)C(C)O2 (stereo not drawn)
3. O=c1[nH]nc(Cc2ccccc2)n1-n1cnnc1
4. Fc1cccc(Cl)c1/C=N\N=C1c2ccccc2-c2ccccc21
5. COC(=O)CCC1=C(C)/C(=C/c2[nH]c(-c3ccc[nH]3)cc2OC)N=C1C
6. c1ccc2c(c1)nc1n2CCSC1
7. CN=C1SC(=Nc2ccc(N(C)C)cc2)N1C

1: 52.6 µM; 2: 40.8 µM; 3: > 100 µM; 4: > 100 µM; 5: 2.92 µM; 6: > 100 µM; 7: > 100 µM

// for each compound in input: emit TGI
1. Cc1cc(=O)oc2cc(O)c(CN(C)CC(=O)O)cc12
2. CCOC(=O)C(=O)Nc1c(C(C)C)cccc1C(C)C
3. CCOC(=O)c1cc(/C=C/C(C)=C/C(=O)OC)n(C)c1C
4. CCOc1c(Cl)cc(CNC(C)C(O)c2ccccc2)cc1OC (stereo not drawn)
5. COc1cc(C2S/C(=C/c3ccccc3)C(=O)N2c2ccc(Cl)c(Cl)c2)cc(OC)c1OC (stereo not drawn)
6. CC(=O)N1CCN(C23OC4(N5CCN(C(C)=O)CC5)C5C6CC(C7C6C4C72)C53)CC1 (stereo not drawn)

1: > 100 µM; 2: > 100 µM; 3: > 100 µM; 4: 89.6 µM; 5: > 100 µM; 6: > 100 µM

----------
system: A549 NSCLC; assay: NCI tumour cell line growth inhibition, 48 h; in the data active = GI50 below about 0.43 µM; inactive = the rest
// one of 1 (active), -1 (inactive), no free text

Worked cases, answers included:
- Molecule: "COc1cc2nc(-c3ccc(C(F)(F)F)cc3)cc(OCCCN3CCCCC3)c2cc1OC"
  Classification: -1
- Molecule: "Cn1cc(CNCC2CCN(c3ncc(C(=O)NO)cn3)CC2)c2ccccc21"
  Classification: 1
- Molecule: "O=C1CC(=O)OC(c2ccc([N+](=O)[O-])cc2)O1"
  Classification: -1
- Molecule: "O=[N+]([O-])c1ccc2c(c1)[O][Sn]([I])([I])[O]2"
  Classification: -1
- Molecule: "Cc1c2ccc(N(C)c3ccnc(Nc4cccc(S(N)(=O)=O)c4)n3)cc2nn1C"
  Classification: -1
- Molecule: "CCC(c1cccc(O)c1)C(CC)c1cccc(O)c1 (centres undefined)"
  Classification: -1
- Molecule: "O=C([CH-]C(=O)C(F)(F)F)c1ccccc1.O=C([CH-]C(=O)C(F)(F)F)c1ccccc1.O=C([CH-]C(=O)C(F)(F)F)c1ccccc1.O=C([CH-]C(=O)C(F)(F)F)c1ccccc1.[Eu+3].c1ccncc1"
  Classification: -1
- Molecule: "Cc1ccc(NC(=O)Cn2c(Br)nc3c2c(=O)n(C)c(=O)n3C)cc1"
  Classification: -1

Status in this test for `COc1ccc(Cn2c(Cl)c(/C=C3/C(=O)Nc4ccccc43)c3cc(OC)c(C)cc32)cc1` ? -1

----------
system: HOP-92 NSCLC; assay: NCI tumour cell line growth inhibition, 48 h
Assignment: determine reported TGI for the given molecules.

- Molecule: "Cc1cc(=O)oc2cc(O)c(CN(C)CC(=O)O)cc12"
  TGI: "> 100 µM"
- Molecule: "CCc1ccc2c(c1)CC1(C2)Cc2cc3c(cc2C1)C(=O)CC3 (stereo not given)"
  TGI: "52.7 µM"
- Molecule: "Cc1ccc(S(=O)(=O)N=Nc2c(O)[nH]c3c(Cl)cc(Cl)cc23)cc1"
  TGI: "> 100 µM"
- Molecule: "CN(C)CCCOCCn1c2c(c3ccccc31)CCCC2"
  TGI: "46 µM"
- Molecule: "O=c1[nH]c(N/N=C\\C(O)C(O)C(O)CO)nc2ccccc12 (stereo not given)"
  TGI: "> 100 µM"

Provide the reported TGI of each entry below, same order.
1. COc1ccc(OC)c2c1C1CCC(=O)N1CN2C(C)=O (stereo not given)
2. CN(Cc1cnc2nc(N)nc(N)c2n1)c1ccc(C(=O)NC(CCC(=O)NC(P(=O)(O)O)P(=O)(O)O)C(=O)O)cc1 (stereo not given)
3. COC(=O)[C@@]12CCCC(=O)[C@@H]1[C@H]1CCCC[C@H]12
4. CCN(CC)c1ccc2c(c1)Nc1cc(=C(C#N)C#N)c3ccccc3c1=N2
5. CSc1ccc(/C=C2\C=C(CC(=O)NCc3ccc(C(=O)c4ccccc4)cc3)c3cc(F)ccc32)cc1

["> 100 µM", "> 100 µM", "> 100 µM", "> 100 µM", "6 µM"]
